This collection of values is drawn from patent US9255100B2.

Tested on: Hepatocytes from Han Wistar rats
Test: In vitro metabolic stability in rat hepatocytes (calculation of hepatic in vivo blood clearance and Fmax)
Assay type: in vitro ADME
Conditions: maximal oral bioavailability calculated from half-life in rat hepatocytes, 1 μM test compound
# Fmax [%] per entry
readoutLabel: Fmax [%] (%)

INSERT INTO results (smilesdata, readoutlabel, recordedmeasurement) VALUES
  ('COc1ccc(Oc2cc(NCC3CCOCC3)c3ncc(-c4ccc(C(=O)NC5CC5)cc4)n3n2)c(F)c1', 'Fmax [%]', 22),
  ('Cc1cc(-c2cnc3c(NCCS(C)(=O)=O)cc(Oc4cccc(F)c4F)nn23)ccc1C(=O)NC1CC1', 'Fmax [%]', 69),
  ('Cc1cc(-c2cnc3c(NCCN4CCOCC4)cc(Oc4cccc(F)c4F)nn23)ccc1C(=O)NC1CC1', 'Fmax [%]', 37),
  ('Cc1ccc(F)cc1Oc1cc(NCCC(F)(F)F)c2ncc(-c3ccc(C(=O)NC4CC4)c(C)c3)n2n1', 'Fmax [%]', 55),
  ('Cc1cc(-c2cnc3c(NCCN4CCOCC4)cc(Oc4cccc(F)c4)nn23)ccc1C(=O)NC1CC1', 'Fmax [%]', 40),
  ('Cc1cc(-c2cnc3c(NCC4CCN(C)CC4)cc(Oc4cccc(F)c4F)nn23)ccc1C(=O)NC1CC1', 'Fmax [%]', 50),
  ('CNc1cc(Oc2cccc(F)c2)nn2c(-c3ccc(C(=O)NC4CC4)c(C)c3)cnc12', 'Fmax [%]', 39);

---

# IC50 per entry
Target: N-terminally GST-tagged human full length recombinant Mps-1 kinase (Homo sapiens)
Construct: N-terminally GST-tagged human full length recombinant Mps-1 kinase; purchased Invitrogen, Karslruhe, Germany PV4071
Sequence (P33981 whole entry): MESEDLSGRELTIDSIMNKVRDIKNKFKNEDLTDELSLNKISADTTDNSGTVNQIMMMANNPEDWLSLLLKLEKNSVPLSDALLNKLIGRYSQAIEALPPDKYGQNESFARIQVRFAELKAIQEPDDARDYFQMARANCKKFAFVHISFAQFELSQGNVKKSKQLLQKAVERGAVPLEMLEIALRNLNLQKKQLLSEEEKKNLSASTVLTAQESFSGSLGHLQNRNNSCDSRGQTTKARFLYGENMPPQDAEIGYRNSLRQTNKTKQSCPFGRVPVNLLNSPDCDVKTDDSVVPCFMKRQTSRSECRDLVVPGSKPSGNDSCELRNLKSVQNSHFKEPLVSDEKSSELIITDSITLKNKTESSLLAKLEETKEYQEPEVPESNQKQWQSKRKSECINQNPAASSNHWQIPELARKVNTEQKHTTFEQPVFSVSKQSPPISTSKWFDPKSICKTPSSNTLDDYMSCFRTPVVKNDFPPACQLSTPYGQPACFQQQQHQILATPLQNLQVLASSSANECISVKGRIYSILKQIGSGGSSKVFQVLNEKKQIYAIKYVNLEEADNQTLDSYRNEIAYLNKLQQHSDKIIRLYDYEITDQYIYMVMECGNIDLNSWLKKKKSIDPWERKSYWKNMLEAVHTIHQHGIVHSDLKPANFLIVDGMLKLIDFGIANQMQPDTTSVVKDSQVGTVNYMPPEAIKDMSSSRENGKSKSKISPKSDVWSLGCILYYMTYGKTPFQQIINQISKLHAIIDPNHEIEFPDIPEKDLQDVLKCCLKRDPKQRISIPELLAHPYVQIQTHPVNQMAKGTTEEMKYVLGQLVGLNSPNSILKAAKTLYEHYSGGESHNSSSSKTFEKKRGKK
Test: Mps-1 kinase assay (TR-FRET)
Type: biochemical
Settings: Mps1 IC50 [nM], 10 μM ATP, 1 μM peptide substrate, 60 min at 22° C.
readoutLabel: IC50 (nM)

INSERT INTO results (smilesdata, testsystem, readoutlabel, unitabbrev, recordedmeasurement) VALUES
  ('Cc1cc(-c2cnc3c(NCCC(F)(F)F)cc(Nc4cccc(Cl)c4)nn23)ccc1C(=O)NC1CC1', 'N-terminally GST-tagged human full length recombinant Mps-1 kinase (Homo sapiens)', 'IC50', 'nM', 0.2),
  ('Cc1cc(-c2cnc3c(NCC(C)(C)O)cc(-c4cn[nH]c4)nn23)ccc1C(=O)NC1CC1', 'N-terminally GST-tagged human full length recombinant Mps-1 kinase (Homo sapiens)', 'IC50', 'nM', 64.9),
  ('Cc1cc(-c2cnc3c(NCCC(F)(F)F)cc(Oc4cccc(F)c4)nn23)ccc1C(=O)NC1CC1', 'N-terminally GST-tagged human full length recombinant Mps-1 kinase (Homo sapiens)', 'IC50', 'nM', 0.2),
  ('COc1c(Oc2cc(NCCC(F)(F)F)c3ncc(-c4ccc(C(=O)NC5CC5)c(C)c4)n3n2)cccc1C(C)C', 'N-terminally GST-tagged human full length recombinant Mps-1 kinase (Homo sapiens)', 'IC50', 'nM', 1.2),
  ('COc1ccccc1Nc1cc(NCCC(F)(F)F)c2ncc(-c3ccc(C(=O)NC4CC4)c(C)c3)n2n1', 'N-terminally GST-tagged human full length recombinant Mps-1 kinase (Homo sapiens)', 'IC50', 'nM', 0.4),
  ('CCNC(=O)c1ccc(-c2cnc3c(NCCC(F)(F)F)cc(Oc4cccc(F)c4)nn23)cc1C', 'N-terminally GST-tagged human full length recombinant Mps-1 kinase (Homo sapiens)', 'IC50', 'nM', 0.2),
  ('Cc1cc(-c2cnc3c(NCC4CCOCC4)cc(-c4ccccc4CO)nn23)ccc1C(=O)NC1CC1', 'N-terminally GST-tagged human full length recombinant Mps-1 kinase (Homo sapiens)', 'IC50', 'nM', 1.6),
  ('Cc1cc(-c2cnc3c(NCC(C)(C)O)cc(SCCN4CCOCC4)nn23)ccc1C(=O)NC1CC1', 'N-terminally GST-tagged human full length recombinant Mps-1 kinase (Homo sapiens)', 'IC50', 'nM', 25.5),
  ('Cc1cc(-c2cnc3c(NCC(F)(F)F)cc(Oc4cccc(F)c4)nn23)ccc1C(=O)NC1CC1', 'N-terminally GST-tagged human full length recombinant Mps-1 kinase (Homo sapiens)', 'IC50', 'nM', 8),
  ('Cc1cc(-c2cnc3c(NCCS(C)(=O)=O)cc(Oc4cccc(F)c4)nn23)ccc1C(=O)NC1CC1', 'N-terminally GST-tagged human full length recombinant Mps-1 kinase (Homo sapiens)', 'IC50', 'nM', 0.1),
  ('CC(C)CNc1cc(-c2ccncc2)nn2c(-c3ccc(-c4cnc(C5CC5)[nH]4)cc3)cnc12', 'N-terminally GST-tagged human full length recombinant Mps-1 kinase (Homo sapiens)', 'IC50', 'nM', 13.7),
  ('Cc1cc(F)cc(Oc2cc(NCC(C)(C)O)c3ncc(-c4ccc(C(=O)NC5CC5)c(C)c4)n3n2)c1', 'N-terminally GST-tagged human full length recombinant Mps-1 kinase (Homo sapiens)', 'IC50', 'nM', 0.2),
  ('Cc1cc(-c2cnc3c(NCC(C)(C)O)cc(Oc4ccc(F)nc4)nn23)ccc1C(=O)NC1CC1', 'N-terminally GST-tagged human full length recombinant Mps-1 kinase (Homo sapiens)', 'IC50', 'nM', 0.5),
  ('Cc1cc(-c2cnc3c(NCC(C)C)cc(S(=O)(=O)c4ccccc4)nn23)ccc1C(=O)NC1CC1', 'N-terminally GST-tagged human full length recombinant Mps-1 kinase (Homo sapiens)', 'IC50', 'nM', 2.6),
  ('Cc1cc(-c2cnc3c(NCC(C)(C)O)cc(SCCC(C)(C)C)nn23)ccc1C(=O)NC1CC1', 'N-terminally GST-tagged human full length recombinant Mps-1 kinase (Homo sapiens)', 'IC50', 'nM', 3.6);
